- Target under test: long form of human GPR120 (Homo sapiens)
- Construct: host or cells: PathHunter CHO-K1 GPR120 β-Arrestin Cell Line
- Assay protocol: Human GPR120 DiscoveRx PathHunter beta-arrestin assay, Procedure β-arrestin A
- Type: cell-based
- Study conditions: PathHunter CHO-K1 GPR120 β-Arrestin cells, 3000 cells per well; read-out: hGPR120 β-arrestin A EC50
Measured quantity: EC50 (nM)

a: CCc1ccc(-c2nsc(C(F)(F)F)c2COc2c(F)cc([C@@H]3C[C@H]3CO)cc2F)cc1
b: OCCCc1cc(F)c(OCc2c(Cl)nsc2-c2ccc(Cl)cc2)c(F)c1
Given the listed items, does a or b have the lesser reported EC50? Answer by quoting the chosen item's label.
b
(b: 28 nM, a: 210 nM)

###

- Target under test: Human GPR120 short form (Homo sapiens, UniProt Q5NUL3)
- Assay protocol: Human GPR120 calcium flux assay, Procedure Calcium A
- Study conditions: HEK-293 cells, FLIPR, 2500 cells/well; read-out: GPR120 Ca2+ Assay A EC50
- Experimental: These cells are first loaded with the Ca^+2 sensitive dye, Fluo-4 NR. Upon stimulation, intracellular released Ca^+2 can bind to the dye and alter its fluorescence intensity. This increase in fluorescence signal, and thus the flux in intracellular [Ca^2+], is detected and quantitated by fluorescence imaging using a FLIPR reader. The effect of the agonist is measured as a function of concentration and used to calculate an EC50 based upon a response curve. […]
pEC50: −log10 of the molar value.
Measured quantity: pEC50

O=C(O)CCc1ccc(OCc2c(C(F)(F)F)nsc2-c2ccc(Cl)cc2)c(Cl)c1Cl    6.56
Cc1c(CCC(=O)O)ccc(OCc2c(C(C)(C)C)nsc2C(F)(F)F)c1C    6.39
CCc1ccc(-c2nsc(C(F)(F)F)c2COc2c(F)cc([C@@H]3C[C@H]3CO)cc2F)cc1    6.16
Cc1sc(-c2ccccc2)c(COc2ccc(CCC(=O)O)c(C)c2C)c1C(F)(F)F    7.30

a: CC(C)Oc1cc(C(F)(F)F)sc1COc1c(F)cc(CCC(=O)O)cc1F
b: O=C(O)CCc1cc(F)c(OCc2sc(Cl)cc2-c2ccc(Cl)cc2)c(F)c1
c: COc1ccc(-c2nsc(C(F)(F)F)c2COc2ccc(CCC(=O)O)c(C)c2C)c(F)c1
Ascending by pEC50, please. Return the labels ranked in the requested order, please.
a, c, b
(a: 6.42, c: 6.97, b: 7.52)

###

- Target under test: Human GPR120 short form (Homo sapiens)
- Construct: expressed in transfected cells
- Sequence (Q5NUL3 1-361): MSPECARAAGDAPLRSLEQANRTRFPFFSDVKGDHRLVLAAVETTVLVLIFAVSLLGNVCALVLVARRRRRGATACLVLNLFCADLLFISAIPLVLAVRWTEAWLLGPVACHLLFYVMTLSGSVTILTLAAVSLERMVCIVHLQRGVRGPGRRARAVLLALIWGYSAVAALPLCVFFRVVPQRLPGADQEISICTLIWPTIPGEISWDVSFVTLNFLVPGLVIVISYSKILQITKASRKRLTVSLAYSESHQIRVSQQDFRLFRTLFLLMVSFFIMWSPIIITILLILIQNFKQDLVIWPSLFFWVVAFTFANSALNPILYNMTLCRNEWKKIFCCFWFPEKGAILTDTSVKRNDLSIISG
- Assay protocol: Human GPR120 calcium flux assay, Procedure Calcium A
- Assay type: cell-based
- Study conditions: HEK-293 cells, FLIPR, 2500 cells/well; read-out: GPR120 Ca2+ Assay A EC50
pEC50: −log10 of the molar value.
Measured quantity: pEC50

Solved entries (count: 4):
O=C(O)CCc1cc(F)c(OCc2c(-c3ccc(C4CC4)cc3)nsc2C(F)(F)F)c(F)c1    6.70
Cc1ccc(-c2snc(C(C)C)c2COc2c(F)cc(CCC(=O)O)cc2F)c(F)c1    6.49
OCCCc1cc(F)c(OCc2c(Cl)nsc2-c2ccc(Cl)cc2)c(F)c1    7.30
CCc1ccc(-c2cc(F)sc2COc2c(F)cc(CCC(=O)O)cc2F)cc1    7.00

A: Cc1ccc(-c2snc(Cl)c2COc2c(F)cc(CCC(=O)O)c(F)c2F)c(F)c1
B: CCc1ccc(-c2cc(C(F)(F)F)sc2COc2ccc(CCC(=O)O)c(C)c2C)cc1
Just curious, which one has the larger pEC50 reading, A or B ? Answer by quoting the chosen item's label.
A
(A: 7.05, B: 5.49)

###

- Target under test: short form of the GPR120 receptor (Homo sapiens)
- Sequence (Q5NUL3 1-361): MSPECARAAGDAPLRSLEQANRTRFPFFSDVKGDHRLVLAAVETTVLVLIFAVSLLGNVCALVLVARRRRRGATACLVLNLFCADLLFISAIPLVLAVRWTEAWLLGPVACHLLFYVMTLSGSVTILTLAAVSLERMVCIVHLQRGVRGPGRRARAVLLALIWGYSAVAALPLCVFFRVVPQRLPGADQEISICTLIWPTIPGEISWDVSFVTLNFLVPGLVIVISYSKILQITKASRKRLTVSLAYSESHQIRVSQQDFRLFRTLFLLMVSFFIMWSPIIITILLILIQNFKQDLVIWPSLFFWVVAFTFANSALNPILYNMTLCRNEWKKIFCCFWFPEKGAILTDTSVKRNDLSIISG
- Assay protocol: Human GPR120 DiscoveRx PathHunter beta-arrestin assay, Procedure β-arrestin B
- Study conditions: PathHunter CHO-K1 GPR120S β-Arrestin cells, 5000 cells/well; read-out: hGPR120 β-arrestin B EC50
Measured quantity: EC50 (nM)

CC(C)Oc1cc(C(F)(F)F)sc1COc1c(F)cc(CCC(=O)O)cc1F    1510
OCCCc1cc(F)c(OCc2c(Cl)nsc2-c2ccc(Cl)cc2)c(F)c1    31
O=C(O)CCc1cc(F)c(OCc2sc(Cl)cc2-c2ccc(Cl)cc2)c(F)c1    68
COc1ccc(-c2nsc(C(F)(F)F)c2COc2ccc(CCC(=O)O)c(C)c2C)c(F)c1    310
O=C(O)CCc1ccc(OCc2c(C(F)(F)F)nsc2-c2ccc(Cl)cc2)c(Cl)c1Cl    819

I: Cc1sc(-c2ccccc2)c(COc2ccc(CCC(=O)O)c(C)c2C)c1C(F)(F)F
II: Cc1c(CCC(=O)O)ccc(OCc2c(C(C)(C)C)nsc2C(F)(F)F)c1C
III: Cc1ccc(-c2snc(Cl)c2COc2c(F)cc(CCC(=O)O)c(F)c2F)c(F)c1
Parameters: sort_field (EC50), sort_dir (desc). Return the labels ranked in the requested order, please.
II, I, III

###

- Target under test: UniProt:Q5NUL3
- Sequence (Q5NUL3 1-377 isoform Q5NUL3-1): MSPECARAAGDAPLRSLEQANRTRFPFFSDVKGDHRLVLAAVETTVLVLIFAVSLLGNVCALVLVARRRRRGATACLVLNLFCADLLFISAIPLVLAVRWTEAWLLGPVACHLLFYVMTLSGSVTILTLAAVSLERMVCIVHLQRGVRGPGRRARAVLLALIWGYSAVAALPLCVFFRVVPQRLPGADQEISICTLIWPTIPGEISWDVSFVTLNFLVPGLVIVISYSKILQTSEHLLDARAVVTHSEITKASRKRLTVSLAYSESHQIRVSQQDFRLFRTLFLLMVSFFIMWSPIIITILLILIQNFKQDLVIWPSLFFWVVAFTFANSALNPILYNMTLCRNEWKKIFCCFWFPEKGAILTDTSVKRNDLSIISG
- Assay protocol: Human GPR120 DiscoveRx PathHunter beta-arrestin assay, Procedure β-arrestin A
- Study conditions: PathHunter CHO-K1 GPR120 β-Arrestin cells, 3000 cells per well; read-out: hGPR120 β-arrestin A EC50
Measured quantity: EC50 (µM)

O=C(O)CCc1cc(F)c(OCc2c(-c3ccc(C4CC4)cc3)nsc2C(F)(F)F)c(F)c1    0.116

1: Cc1sc(-c2ccccc2)c(COc2ccc(CCC(=O)O)c(C)c2C)c1C(F)(F)F
2: CCc1ccc(-c2cc(F)sc2COc2c(F)cc(CCC(=O)O)cc2F)cc1
3: O=C(O)CCc1cc(F)c(OCc2sc(Cl)cc2-c2ccc(Cl)cc2)c(F)c1
Parameters: sort_field (EC50), sort_dir (desc). Return the labels ranked in the requested order, please.
1, 2, 3
(1: 0.431 µM, 2: 0.209 µM, 3: 0.097 µM)

These entries and their values trace back to patent US10118922B2.
